Origin of values: patent US20070224253A1

- MEASUREMENT DESCRIPTION: Yellow discoloration of the meptazinol gel on standing, effect of antioxidants
- Format: physicochemical
- SETTINGS: antioxidant included in meptazinol gel; BHT 0.02-0.05%, ascorbic acid 0.05%
READOUT NAME: Effect on yellow discoloration of the gel

>>> value_observed("COc1ccc(O)c(C(C)(C)C)c1 [butylated hydroxy anisole]")
"did not"
>>> value_observed("Cc1c(C)c2c(c(C)c1O)CC[C@@](C)(CCC[C@H](C)CCC[C@H](C)CCCC(C)C)O2 [alpha tocopherol]")
"did not"
>>> value_observed("Oc1cccc(O)c1O [pyrogallol]")
"did not"

* * *

- MEASUREMENT DESCRIPTION: Aqueous solubility
- Assay type: physicochemical
- SETTINGS: aqueous solution
READOUT NAME: solubility

>>> value_observed("CCC1(c2cccc(O)c2)CCCCN(C)C1 (stereo not shown) [Meptazinol free base, Meptazinol]")
"170 µg/mL"
